Listing of recorded Threshold by entry.
- Assayed System: T1, GAL4 activation domain fusion (ACT) to HAB1 (UniProt Q9CAJ0 23-511, limits assumed)
- T1 construct: pACT-HAB1 fusion in yeast reporter strains; also called pACT-HAB1
- T1 sequence (looked up): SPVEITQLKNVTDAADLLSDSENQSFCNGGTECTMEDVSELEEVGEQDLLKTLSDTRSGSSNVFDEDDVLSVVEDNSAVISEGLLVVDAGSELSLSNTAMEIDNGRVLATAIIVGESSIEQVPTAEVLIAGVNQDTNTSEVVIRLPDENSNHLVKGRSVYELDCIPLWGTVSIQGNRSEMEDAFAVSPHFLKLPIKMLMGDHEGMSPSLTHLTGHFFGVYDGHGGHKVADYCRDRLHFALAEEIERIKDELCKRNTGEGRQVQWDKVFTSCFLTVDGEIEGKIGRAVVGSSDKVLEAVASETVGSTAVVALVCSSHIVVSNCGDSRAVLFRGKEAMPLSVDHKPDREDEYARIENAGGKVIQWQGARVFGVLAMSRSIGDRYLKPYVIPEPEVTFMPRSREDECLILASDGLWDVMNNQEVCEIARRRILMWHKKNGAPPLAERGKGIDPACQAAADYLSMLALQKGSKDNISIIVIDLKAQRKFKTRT
- Procedure Text: yeast two-hybrid, X-gal; lowest benzothiadiazole concentration giving signal
Provide the reading as a plain figure in µM.

The following binders have reported results that may help.
PYR1^K59R,V83L (receptor, not shown: small tags and cut ends, pBD-PYR1 fusion in yeast) MPSELTPEERSELKNSIAEFHTYQLDPGSCSSLHAQRIHAPPELVWSIVRRFDKPQTYRHFIKSCSVEQNFEMRVGCTRDVILISGLPANTSTERLDILDDERRVTGFSIIGGEHRLTNYKSVTTVHRFEKENRIWTVVLESYVVDMPEGNSEDDTRMFADTVVKLNLQKLATVAEAMARNSGDGSGSQVT    100
PYR1^K59R,A89C (receptor, not shown: small tags and cut ends, pBD-PYR1 fusion in yeast) MPSELTPEERSELKNSIAEFHTYQLDPGSCSSLHAQRIHAPPELVWSIVRRFDKPQTYRHFIKSCSVEQNFEMRVGCTRDVIVISGLPCNTSTERLDILDDERRVTGFSIIGGEHRLTNYKSVTTVHRFEKENRIWTVVLESYVVDMPEGNSEDDTRMFADTVVKLNLQKLATVAEAMARNSGDGSGSQVT    100

Request: Please report the measured Threshold for PYR1^K59R,V164K (receptor, not shown: small tags and cut ends, pBD-PYR1 fusion in yeast) MPSELTPEERSELKNSIAEFHTYQLDPGSCSSLHAQRIHAPPELVWSIVRRFDKPQTYRHFIKSCSVEQNFEMRVGCTRDVIVISGLPANTSTERLDILDDERRVTGFSIIGGEHRLTNYKSVTTVHRFEKENRIWTVVLESYVVDMPEGNSEDDTRMFADTVKKLNLQKLATVAEAMARNSGDGSGSQVT
Response: 100
